- tested-on: human capsaicin receptor (Homo sapiens)
- Construct: expressed in transfected cells
- Sequence (Q8NER1 whole entry): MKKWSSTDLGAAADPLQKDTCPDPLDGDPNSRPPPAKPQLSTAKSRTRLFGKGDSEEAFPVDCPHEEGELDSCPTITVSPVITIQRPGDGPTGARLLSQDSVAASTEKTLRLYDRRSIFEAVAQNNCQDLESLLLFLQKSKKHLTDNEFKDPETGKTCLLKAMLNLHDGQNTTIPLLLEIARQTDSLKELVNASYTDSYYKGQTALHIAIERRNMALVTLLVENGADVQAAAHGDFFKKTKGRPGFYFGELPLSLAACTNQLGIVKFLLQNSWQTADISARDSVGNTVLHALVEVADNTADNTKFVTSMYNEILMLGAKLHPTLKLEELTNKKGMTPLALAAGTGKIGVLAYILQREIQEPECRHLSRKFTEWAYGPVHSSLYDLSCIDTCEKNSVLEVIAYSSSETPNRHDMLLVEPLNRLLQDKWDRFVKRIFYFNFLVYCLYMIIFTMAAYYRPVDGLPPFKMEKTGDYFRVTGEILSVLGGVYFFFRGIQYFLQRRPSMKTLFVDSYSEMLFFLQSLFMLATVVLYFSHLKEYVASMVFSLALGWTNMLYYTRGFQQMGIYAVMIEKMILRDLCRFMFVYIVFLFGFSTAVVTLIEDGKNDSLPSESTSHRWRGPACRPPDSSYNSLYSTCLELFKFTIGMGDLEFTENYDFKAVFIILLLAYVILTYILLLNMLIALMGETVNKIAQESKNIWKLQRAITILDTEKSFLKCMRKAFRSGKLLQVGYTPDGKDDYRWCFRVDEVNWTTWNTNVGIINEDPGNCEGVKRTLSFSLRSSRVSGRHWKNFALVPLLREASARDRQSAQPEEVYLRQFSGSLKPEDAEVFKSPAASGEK
- test-summary: Calcium mobilization assay, determination of antagonist activity (Example 6)
- Type: cell-based
- condition: cells expressing human capsaicin receptor; capsaicin at EC50; read-out: IC50 determined as described in Example 6
pIC50: −log10 of the molar value.
Overview of recorded pIC50 for various compounds
observable: pIC50

- compound: "CCOc1nc(Nc2ccnc3nc(-c4ncc(C(N)=O)cc4C(F)(F)F)cnc23)ccc1C(F)(F)F [Compound 9]"
  observable: "pIC50"
  recorded-result: "> 6.00"
- compound: "COc1ccc(C(F)(F)F)c(-c2ccc3c(Nc4ccc(C(F)(F)F)cn4)ccnc3n2)n1 [Compound 5]"
  observable: "pIC50"
  recorded-result: "> 6.00"
- compound: "N#Cc1cnc(-c2ccc3c(Nc4ccc(C(F)(F)F)cn4)ccnc3n2)c(C(F)(F)F)c1 [Compound 7]"
  observable: "pIC50"
  recorded-result: "> 6.00"
